Target: T1, gp130 on HepG2 B6 cells (UniProt P40189 23-918, limits assumed)
T1 sequence (looked up): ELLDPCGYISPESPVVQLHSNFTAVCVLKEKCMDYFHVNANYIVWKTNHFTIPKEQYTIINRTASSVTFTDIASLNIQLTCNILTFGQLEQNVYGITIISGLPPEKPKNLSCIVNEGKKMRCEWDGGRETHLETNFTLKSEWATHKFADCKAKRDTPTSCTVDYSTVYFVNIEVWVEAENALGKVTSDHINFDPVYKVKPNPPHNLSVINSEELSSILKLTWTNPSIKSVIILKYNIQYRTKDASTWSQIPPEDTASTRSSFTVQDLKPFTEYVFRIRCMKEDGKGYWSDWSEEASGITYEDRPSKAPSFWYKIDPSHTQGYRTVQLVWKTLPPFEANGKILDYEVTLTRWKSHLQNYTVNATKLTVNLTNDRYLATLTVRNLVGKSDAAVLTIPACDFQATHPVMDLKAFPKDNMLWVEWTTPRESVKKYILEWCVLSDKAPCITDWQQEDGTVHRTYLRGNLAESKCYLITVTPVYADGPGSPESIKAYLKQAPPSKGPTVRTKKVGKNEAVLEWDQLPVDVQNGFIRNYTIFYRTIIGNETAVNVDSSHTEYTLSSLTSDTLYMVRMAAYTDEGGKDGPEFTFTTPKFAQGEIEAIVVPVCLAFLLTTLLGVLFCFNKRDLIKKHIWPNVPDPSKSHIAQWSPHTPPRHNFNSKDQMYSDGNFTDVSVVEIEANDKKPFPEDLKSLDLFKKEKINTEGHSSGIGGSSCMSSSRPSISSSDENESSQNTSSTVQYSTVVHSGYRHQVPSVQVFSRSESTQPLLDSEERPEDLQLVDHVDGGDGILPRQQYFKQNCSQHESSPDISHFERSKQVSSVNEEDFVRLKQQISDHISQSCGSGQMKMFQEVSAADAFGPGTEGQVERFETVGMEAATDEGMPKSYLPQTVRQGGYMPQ
Assay: cell-based or functional assay
measured.property: sPAP HepG2 B6 assay: Expt 1 % (EC50 as % of wild type EC50) (%)
Enter your answer as a number in %; do not include the unit.

OSM-GST mutant P116A (ligand, not shown: a dimerising Fc or GST; large carriers; small tags and cut ends, Alanine mutant of m4; also called (17)P116A; 17 P116A) AAIGSCSKEYRVLLGQLQKQTDLMQDTSRLLDPYIRIQGLDVPKLREHCRERPGAFPSEETLRGLGRRGFLQTLNATLGCVLHRLADLEQRLPKAQDLERSGLNIEDLEKLQMARANILGLRNNIYCMAQLLDNSDTAEPTKAGRGASQPPTPTPASDAFQRKLEGCRFLHGYHRFMHSVGRVFSKWGESPNRSRR | 104

Now let's try a different one.
Ask: Given the entry OSM-GST mutant M113A (ligand, not shown: a dimerising Fc or GST; large carriers; small tags and cut ends, Alanine mutant of m4; also called (16)M113; 16 M113A) AAIGSCSKEYRVLLGQLQKQTDLMQDTSRLLDPYIRIQGLDVPKLREHCRERPGAFPSEETLRGLGRRGFLQTLNATLGCVLHRLADLEQRLPKAQDLERSGLNIEDLEKLQAARPNILGLRNNIYCMAQLLDNSDTAEPTKAGRGASQPPTPTPASDAFQRKLEGCRFLHGYHRFMHSVGRVFSKWGESPNRSRR , report its measured sPAP HepG2 B6 assay: Expt 1 % (EC50 as % of wild type EC50).
Reply: 106

// data source = patent US6706266
